Data provenance is patent US11420936B2.

System: HIF-2α (Homo sapiens (Human), UniProt Q99814)
Sequence (Q99814 whole entry): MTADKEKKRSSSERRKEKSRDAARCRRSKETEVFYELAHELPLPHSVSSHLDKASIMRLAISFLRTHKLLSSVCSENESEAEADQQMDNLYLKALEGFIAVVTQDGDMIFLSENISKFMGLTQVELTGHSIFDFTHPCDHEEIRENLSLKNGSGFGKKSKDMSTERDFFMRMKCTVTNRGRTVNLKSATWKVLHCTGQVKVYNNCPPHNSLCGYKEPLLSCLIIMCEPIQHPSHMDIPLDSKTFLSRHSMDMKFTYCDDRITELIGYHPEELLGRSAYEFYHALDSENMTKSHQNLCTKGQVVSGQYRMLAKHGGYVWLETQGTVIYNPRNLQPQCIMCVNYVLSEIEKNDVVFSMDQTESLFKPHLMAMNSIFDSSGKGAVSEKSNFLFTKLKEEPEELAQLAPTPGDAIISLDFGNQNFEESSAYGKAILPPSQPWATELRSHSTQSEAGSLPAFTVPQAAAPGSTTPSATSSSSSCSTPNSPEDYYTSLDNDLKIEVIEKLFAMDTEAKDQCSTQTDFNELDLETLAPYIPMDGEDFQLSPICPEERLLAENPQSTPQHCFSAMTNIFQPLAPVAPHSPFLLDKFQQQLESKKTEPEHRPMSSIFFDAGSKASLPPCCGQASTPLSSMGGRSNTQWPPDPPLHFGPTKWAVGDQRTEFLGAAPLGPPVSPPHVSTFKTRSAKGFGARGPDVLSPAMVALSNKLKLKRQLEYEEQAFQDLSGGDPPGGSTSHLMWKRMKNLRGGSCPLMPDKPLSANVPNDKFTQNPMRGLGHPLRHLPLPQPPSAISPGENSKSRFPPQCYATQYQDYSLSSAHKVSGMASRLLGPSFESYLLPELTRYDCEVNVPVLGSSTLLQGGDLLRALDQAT
Experiment summary: cell-based
Format: cell-based
Condition info: inhibition of VEGF expression in 786-O cells, ELISA of culture medium; read-out: EC50
Property: pEC50
Notebook: values listed as pEC50 are -log10 of the concentration (mol/L).

Exercise: I'd like to know its pEC50. The compound in question is N#Cc1cc(F)cc(Oc2ccc3c4c2[C@@H](F)[C@H](F)[C@]4(O)C(F)(F)C3(F)F)c1 [Compound 24b]
Solution: 7.96

Exercise: // lookup pEC50 for N#Cc1cc(F)cc(Oc2ccc3c4c2C(F)CC4(N)C(F)(F)C3(F)F)c1 (centres unmarked)
Solution: 6.20

Exercise: Would you kindly share the measured pEC50 for N#Cc1cc(F)cc(Oc2ccc3c4c2CC(F)(F)C4(O)CC3F)c1 (centres unmarked) ?
Solution: 5.39

Exercise: Query (compound): CC1(F)CC2(O)c3c(ccc(Oc4cc(F)cc(C#N)c4)c31)C(F)(F)C2(F)F (centres unmarked) ; field requested: pEC50
Solution: 7.00

Exercise: Param item = N#Cc1cc(F)cc(Oc2ccc3c4c2C2(CC2)CC4(O)C(F)(F)C3(F)F)c1 (centres unmarked) ; retrieve measured pEC50.
Solution: 6.77

Exercise: Sample N#Cc1cc(F)cc(Oc2ccc3c4c2[C@@H](F)[C@@H](F)[C@]4(O)C(F)(F)C3(F)F)c1 [Compound 24a] — what was its pEC50?
Solution: 8.70

Exercise: Quick one: pEC50 for N#Cc1cc(F)cc(Oc2ccc3c4c2[C@H](F)C[C@]4(O)C(F)(F)C3(F)F)c1 ?
Solution: 5.68

---

Can you tell me pEC50 for the items I'm about to list?
System: HIF-2α (Homo sapiens (Human))
Experiment summary: cell-based
Assay type: cell-based
Condition info: inhibition of VEGF expression in 786-O cells, ELISA of culture medium; read-out: EC50
Conceptually, pEC50 converts a concentration in mol/L into minus its log10.

Exercise: What reported pEC50 corresponds to N#Cc1cc(F)cc(Oc2ccc3c4c2C(F)CC4(O)C(F)(F)C3(F)F)c1 (centres unmarked) on HIF-2α (Homo sapiens (Human))?
Solution: 8.00

Exercise: Lab request: please report pEC50 under test system HIF-2α (Homo sapiens (Human)) for N#Cc1cc(F)cc(Oc2ccc3c4c2CCC4(O)C(F)(F)C3(F)F)c1 (centres unmarked)
Solution: 6.48

Exercise: # query: pEC50 | item CC1CC2(O)c3c(ccc(Oc4cc(F)cc(C#N)c4)c31)C(F)(F)C2(F)F (centres unmarked) | system: HIF-2α (Homo sapiens (Human))
Solution: 6.39

Exercise: Could you share what pEC50 was measured for N#Cc1cc(F)cc(Oc2ccc3c4c2[C@@H](F)C[C@]4(O)C(F)(F)C3(F)F)c1 , tested on HIF-2α (Homo sapiens (Human))?
Solution: 8.22

Exercise: Look up pEC50 with HIF-2α (Homo sapiens (Human)) for this compound: C=C1C[C@@]2(O)c3c(ccc(Oc4cc(F)cc(C#N)c4)c31)C(F)(F)C2(F)F [Compound 23a]
Solution: 8.15

Exercise: Provide value of pEC50 for this record tested with HIF-2α (Homo sapiens (Human)): OC12CC(F)c3c(Oc4cncc(F)c4)ccc(c31)C(F)(F)C2(F)F (centres unmarked)
Solution: 6.49

Exercise: State its pEC50 on HIF-2α (Homo sapiens (Human)): C=C1CC2(O)c3c(ccc(Oc4cc(F)cc(C#N)c4)c31)C(F)(F)C2(F)F (centres unmarked)
Solution: 7.89

---

System: HIF-2α (Homo sapiens (Human), UniProt Q99814)
Experiment summary: cell-based
Type: cell-based
Property: pEC50
Notebook: values listed as pEC50 are -log10 of the concentration (mol/L).

Exercise: # pEC50 lookup, item [2H]C1([2H])[C@@]2(O)c3c(ccc(Oc4cc(F)cc(C#N)c4)c3[C@@]1([2H])F)C(F)(F)C2(F)F [Compound 21]
Solution: 8.22
